Parameter: pKi. Scope: all listed entries.
- TARGET DESC: Human or Rat Histamine H3 Receptor (UniProt Q9Y5N1)
- ASSAY METHOD TEXT: Binding assay for human or rat histamine H3 receptor ([3H] R-α-methylhistamine displacement)
- MEASUREMENT CONDITIONS: [3H] R-α-methylhistamine 3.0 nM; rat brain frontal cortex or recombinant human receptor in CHO cells (source for table not stated)
pKi: −log10 of the molar value. Where a name gives a salt, the structure may show the parent alone.
REPORTED ENDPOINT: pKi

[[record]]
compound = "CC(C)N1CCC(Oc2ccc(C=CC(=O)N3CCOCC3)c(F)c2)CC1"
reported_endpoint = "pKi"
result_value = 7.76

[[record]]
compound = "O=C(C=Cc1ccc(OC2CCN(C3CCC3)CC2)cc1)N1CCS(=O)(=O)CC1 [Example 3, hydrochloride salt]"
reported_endpoint = "pKi"
result_value = 8.85

[[record]]
compound = "O=C(C=Cc1ccc(OC2CCN(C3CCC3)CC2)cc1F)N1CCOCC1.O=C(O)C(O)C(O)C(=O)O"
reported_endpoint = "pKi"
result_value = 8.53

[[record]]
compound = "CC(C)N1CCC(Oc2ccc(C=CC(=O)N3CCOCC3)cc2Br)CC1"
reported_endpoint = "pKi"
result_value = 7.77

[[record]]
compound = "O=C(C=Cc1ccc(OC2CCN(C3CCC3)CC2)cc1Cl)N1CCOCC1"
reported_endpoint = "pKi"
result_value = 7.53

[[record]]
compound = "CC(C)CN1CCC(Oc2ccc(C=CC(=O)N3CCOCC3)cc2)CC1"
reported_endpoint = "pKi"
result_value = 7.49

[[record]]
compound = "Cc1cc(OC2CCN(C(C)C)CC2)ccc1C=CC(=O)N1CCOCC1"
reported_endpoint = "pKi"
result_value = 7.88


###

- TARGET DESC: Human or Rat Histamine H3 Receptor (UniProt Q9Y5N1)
- ASSAY METHOD TEXT: Binding assay for human or rat histamine H3 receptor ([3H] R-α-methylhistamine displacement)
- MEASUREMENT CONDITIONS: [3H] R-α-methylhistamine 3.0 nM; rat brain frontal cortex or recombinant human receptor in CHO cells (source for table not stated); fumarate salt
REPORTED ENDPOINT: Ki (nM)

[[record]]
compound = "O=C(C=Cc1ccc(OC2CCN(C3CCC3)CC2)cc1)N1CCOCC1.O=C(O)/C=C/C(=O)O [Example 1, fumarate salt]"
result_value = 1.32


###

- ASSAY METHOD TEXT: Rodent pharmacokinetic study
- Assay type: in vivo
- MEASUREMENT CONDITIONS: rat, whole blood; Wistar rats/Male, 3 mg/kg, Per-Oral, blood
Parameter: half-life. Scope: all listed entries.
REPORTED ENDPOINT: half-life (h)

[[record]]
query_smiles = "O=C(C=Cc1ccc(OC2CCN(C3CCC3)CC2)cc1)N1CCOCC1.O=C(O)/C=C/C(=O)O"
reported_endpoint = "half-life"
result_value = 1.56

[[record]]
query_smiles = "O=C(C=Cc1ccc(OC2CCN(C3CCC3)CC2)nc1)N1CCOCC1.O=C(O)C(O)C(O)C(=O)O"
reported_endpoint = "half-life"
result_value = 1.1

[[record]]
query_smiles = "O=C(C=Cc1ccc(OC2CCN(C3CCC3)CC2)cc1F)N1CCOCC1.O=C(O)C(O)C(O)C(=O)O"
reported_endpoint = "half-life"
result_value = 0.9

[[record]]
query_smiles = "O=C(C=Cc1ccc(OC2CCN(C3CCC3)CC2)cc1)N1CCOCC1.O=C(O)C(O)C(O)C(=O)O"
reported_endpoint = "half-life"
result_value = 0.85


###

- ASSAY METHOD TEXT: Rodent pharmacokinetic study
- Format: in vivo
- MEASUREMENT CONDITIONS: rat, whole blood; Wistar rats/Male, 3 mg/kg, Per-Oral, blood
REPORTED ENDPOINT: Tmax (min)

[[record]]
query_smiles = "O=C(C=Cc1ccc(OC2CCN(C3CCC3)CC2)nc1)N1CCOCC1.O=C(O)C(O)C(O)C(=O)O"
reported_endpoint = "Tmax"
result_value = 25.2

[[record]]
query_smiles = "O=C(C=Cc1ccc(OC2CCN(C3CCC3)CC2)cc1F)N1CCOCC1.O=C(O)C(O)C(O)C(=O)O"
reported_endpoint = "Tmax"
result_value = 15

[[record]]
query_smiles = "O=C(C=Cc1ccc(OC2CCN(C3CCC3)CC2)cc1)N1CCOCC1.O=C(O)C(O)C(O)C(=O)O"
reported_endpoint = "Tmax"
result_value = 15

[[record]]
query_smiles = "O=C(C=Cc1ccc(OC2CCN(C3CCC3)CC2)cc1)N1CCOCC1.O=C(O)/C=C/C(=O)O"
reported_endpoint = "Tmax"
result_value = 30


###

Parameter: Cmax. Scope: all listed entries.
- ASSAY METHOD TEXT: Rodent pharmacokinetic study
- Type: in vivo
- MEASUREMENT CONDITIONS: rat, whole blood; Wistar rats/Male, 1 mg/kg, Intravenous, blood
REPORTED ENDPOINT: Cmax (ng/mL)

[[record]]
query_smiles = "O=C(C=Cc1ccc(OC2CCN(C3CCC3)CC2)nc1)N1CCOCC1.O=C(O)C(O)C(O)C(=O)O"
reported_endpoint = "Cmax"
result_value = 220

[[record]]
query_smiles = "O=C(C=Cc1ccc(OC2CCN(C3CCC3)CC2)cc1)N1CCOCC1.O=C(O)/C=C/C(=O)O"
reported_endpoint = "Cmax"
result_value = 214

[[record]]
query_smiles = "O=C(C=Cc1ccc(OC2CCN(C3CCC3)CC2)cc1)N1CCOCC1.O=C(O)C(O)C(O)C(=O)O"
reported_endpoint = "Cmax"
result_value = 285

[[record]]
query_smiles = "O=C(C=Cc1ccc(OC2CCN(C3CCC3)CC2)cc1F)N1CCOCC1.O=C(O)C(O)C(O)C(=O)O"
reported_endpoint = "Cmax"
result_value = 311


###

- ASSAY METHOD TEXT: Rodent pharmacokinetic study
- Format: in vivo
- MEASUREMENT CONDITIONS: rat, whole blood; Wistar rats/Male, 3 mg/kg Per-Oral vs 1 mg/kg Intravenous
Parameter: bioavailability. Scope: all listed entries.
REPORTED ENDPOINT: bioavailability (%)

[[record]]
query_smiles = "O=C(C=Cc1ccc(OC2CCN(C3CCC3)CC2)cc1F)N1CCOCC1.O=C(O)C(O)C(O)C(=O)O"
reported_endpoint = "bioavailability"
result_value = 9

[[record]]
query_smiles = "O=C(C=Cc1ccc(OC2CCN(C3CCC3)CC2)cc1)N1CCOCC1.O=C(O)C(O)C(O)C(=O)O"
reported_endpoint = "bioavailability"
result_value = 58

[[record]]
query_smiles = "O=C(C=Cc1ccc(OC2CCN(C3CCC3)CC2)nc1)N1CCOCC1.O=C(O)C(O)C(O)C(=O)O"
reported_endpoint = "bioavailability"
result_value = 35

[[record]]
query_smiles = "O=C(C=Cc1ccc(OC2CCN(C3CCC3)CC2)cc1)N1CCOCC1.O=C(O)/C=C/C(=O)O"
reported_endpoint = "bioavailability"
result_value = 29


###

Parameter: half-life. Scope: all listed entries.
- ASSAY METHOD TEXT: Rodent pharmacokinetic study
- Assay type: in vivo
- MEASUREMENT CONDITIONS: rat, whole blood; Wistar rats/Male, 1 mg/kg, Intravenous, blood
REPORTED ENDPOINT: half-life (min)

[[record]]
query_smiles = "O=C(C=Cc1ccc(OC2CCN(C3CCC3)CC2)nc1)N1CCOCC1.O=C(O)C(O)C(O)C(=O)O"
result_value = 36

[[record]]
query_smiles = "O=C(C=Cc1ccc(OC2CCN(C3CCC3)CC2)cc1F)N1CCOCC1.O=C(O)C(O)C(O)C(=O)O"
result_value = 36

[[record]]
query_smiles = "O=C(C=Cc1ccc(OC2CCN(C3CCC3)CC2)cc1)N1CCOCC1.O=C(O)C(O)C(O)C(=O)O"
result_value = 48

[[record]]
query_smiles = "O=C(C=Cc1ccc(OC2CCN(C3CCC3)CC2)cc1)N1CCOCC1.O=C(O)/C=C/C(=O)O"
result_value = 63

